# targetDesc: acetylcholinesterase from Electrophorus electricus (Electrophorus electricus)
# Construct: purchased Sigma Aldrich type V-S
# assayProcedure: biochemical
# Type: biochemical
# conditionDetails: read-out: AChE IC50
readoutLabel: pIC50
Units for pIC50: none; it is -log10 of a concentration expressed in mol/L.

QUERY: Looking for the measured pIC50 of OCc1cn(CCCCCCNc2c3c(nc4ccccc24)CCCC3)nn1 [Compound 5b] , can you help?
RESULT: 7.90

---

# targetDesc: acetylcholinesterase from Electrophorus electricus (Electrophorus electricus, UniProt O42275)
# Construct: purchased Sigma Aldrich type V-S
# Sequence (O42275 24-633): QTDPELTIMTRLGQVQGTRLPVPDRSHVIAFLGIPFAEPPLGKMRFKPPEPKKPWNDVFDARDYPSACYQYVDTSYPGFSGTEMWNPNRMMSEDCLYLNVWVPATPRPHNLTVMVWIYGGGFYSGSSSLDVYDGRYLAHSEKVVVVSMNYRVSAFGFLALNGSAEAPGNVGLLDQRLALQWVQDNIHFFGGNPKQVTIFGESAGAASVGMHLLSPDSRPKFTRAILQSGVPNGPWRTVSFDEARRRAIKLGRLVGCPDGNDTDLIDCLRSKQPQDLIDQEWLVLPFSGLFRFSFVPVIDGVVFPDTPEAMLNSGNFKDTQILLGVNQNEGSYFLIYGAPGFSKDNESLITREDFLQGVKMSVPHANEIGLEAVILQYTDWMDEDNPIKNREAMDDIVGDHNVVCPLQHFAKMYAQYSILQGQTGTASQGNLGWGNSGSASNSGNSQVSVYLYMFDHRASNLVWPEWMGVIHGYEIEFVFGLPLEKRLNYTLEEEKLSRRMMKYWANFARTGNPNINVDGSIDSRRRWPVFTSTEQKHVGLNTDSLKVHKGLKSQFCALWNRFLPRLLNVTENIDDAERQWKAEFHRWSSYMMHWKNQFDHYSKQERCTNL
# assayProcedure: biochemical
# Format: biochemical
# conditionDetails: read-out: AChE IC50
# Source text: For the assessment of enzymatic inhibition, commercially available acetylcholinesterase from Electrophorus electricus (type V-S, Sigma Aldrich) was used, conducting minor modifications on Ellman’s protocol. […] Data are expressed as the mean ± SD.
readoutLabel: log10 of IC50 (log10 of the value in µM)
For clarity, the numbers are log10 values of IC50 expressed in µM.

QUERY: Which log10 of IC50 is listed for OCc1cn(CCCNc2c3c(nc4ccccc24)CCCC3)nn1 [Compound 4b] ?
RESULT: -0.46

QUERY: Consider the compound shown here: CO[C@H]1O[C@H](COCc2cn(CCCCCCNc3c4c(nc5ccccc35)CCCC4)nn2)[C@@H](OCc2cn(CCCCCCNc3c4c(nc5ccccc35)CCCC4)nn2)[C@H](OCc2cn(CCCCCCNc3c4c(nc5ccccc35)CCCC4)nn2)[C@H]1OCc1cn(CCCCCCNc2c3c(nc4ccccc24)CCCC3)nn1 [Compound 5a] What is its recorded log10 of IC50?
RESULT: -1.90

QUERY: Value lookup for log10 of IC50; key = CO[C@H]1O[C@H](COCc2cn(CCNc3c4c(nc5ccccc35)CCCC4)nn2)[C@@H](OCc2cn(CCNc3c4c(nc5ccccc35)CCCC4)nn2)[C@H](OCc2cn(CCNc3c4c(nc5ccccc35)CCCC4)nn2)[C@H]1OCc1cn(CCNc2c3c(nc4ccccc24)CCCC3)nn1 [Compound 3a]
RESULT: -1.36

QUERY: Which log10 of IC50 value is on record for OCc1cn(CCNc2c3c(nc4ccccc24)CCCC3)nn1 [Compound 3b] ?
RESULT: -0.25

QUERY: Please look up its log10 of IC50: OCc1cn(CCCCCCCCNc2c3c(nc4ccccc24)CCCC3)nn1 [Compound 6b]
RESULT: -2.15

These entries and their values trace back to paper PMC8317962.
